test system: SW480; assay: CellTiterGlo cell viability assay, SW480; format: cell-based; settings: Homo sapiens; SW480, colorectal cancer, p53 R273, P309S, 72 hours
measured_metric: pIC50
pIC50 here: minus log base 10 of the concentration, concentration in moles per litre.

Input line: Quick check: pIC50 of CCCCCCCCOC(=O)CCc1c(C)[nH]c(/C=C2\N=C(c3ccc[nH]3)C=C2OC)c1C ?
Output line: 7.02
